Sourced from paper PMC9304232

Molecular target: hNaV1.6 (Homo sapiens, UniProt Q9UQD0)
Sequence (Q9UQD0 whole entry): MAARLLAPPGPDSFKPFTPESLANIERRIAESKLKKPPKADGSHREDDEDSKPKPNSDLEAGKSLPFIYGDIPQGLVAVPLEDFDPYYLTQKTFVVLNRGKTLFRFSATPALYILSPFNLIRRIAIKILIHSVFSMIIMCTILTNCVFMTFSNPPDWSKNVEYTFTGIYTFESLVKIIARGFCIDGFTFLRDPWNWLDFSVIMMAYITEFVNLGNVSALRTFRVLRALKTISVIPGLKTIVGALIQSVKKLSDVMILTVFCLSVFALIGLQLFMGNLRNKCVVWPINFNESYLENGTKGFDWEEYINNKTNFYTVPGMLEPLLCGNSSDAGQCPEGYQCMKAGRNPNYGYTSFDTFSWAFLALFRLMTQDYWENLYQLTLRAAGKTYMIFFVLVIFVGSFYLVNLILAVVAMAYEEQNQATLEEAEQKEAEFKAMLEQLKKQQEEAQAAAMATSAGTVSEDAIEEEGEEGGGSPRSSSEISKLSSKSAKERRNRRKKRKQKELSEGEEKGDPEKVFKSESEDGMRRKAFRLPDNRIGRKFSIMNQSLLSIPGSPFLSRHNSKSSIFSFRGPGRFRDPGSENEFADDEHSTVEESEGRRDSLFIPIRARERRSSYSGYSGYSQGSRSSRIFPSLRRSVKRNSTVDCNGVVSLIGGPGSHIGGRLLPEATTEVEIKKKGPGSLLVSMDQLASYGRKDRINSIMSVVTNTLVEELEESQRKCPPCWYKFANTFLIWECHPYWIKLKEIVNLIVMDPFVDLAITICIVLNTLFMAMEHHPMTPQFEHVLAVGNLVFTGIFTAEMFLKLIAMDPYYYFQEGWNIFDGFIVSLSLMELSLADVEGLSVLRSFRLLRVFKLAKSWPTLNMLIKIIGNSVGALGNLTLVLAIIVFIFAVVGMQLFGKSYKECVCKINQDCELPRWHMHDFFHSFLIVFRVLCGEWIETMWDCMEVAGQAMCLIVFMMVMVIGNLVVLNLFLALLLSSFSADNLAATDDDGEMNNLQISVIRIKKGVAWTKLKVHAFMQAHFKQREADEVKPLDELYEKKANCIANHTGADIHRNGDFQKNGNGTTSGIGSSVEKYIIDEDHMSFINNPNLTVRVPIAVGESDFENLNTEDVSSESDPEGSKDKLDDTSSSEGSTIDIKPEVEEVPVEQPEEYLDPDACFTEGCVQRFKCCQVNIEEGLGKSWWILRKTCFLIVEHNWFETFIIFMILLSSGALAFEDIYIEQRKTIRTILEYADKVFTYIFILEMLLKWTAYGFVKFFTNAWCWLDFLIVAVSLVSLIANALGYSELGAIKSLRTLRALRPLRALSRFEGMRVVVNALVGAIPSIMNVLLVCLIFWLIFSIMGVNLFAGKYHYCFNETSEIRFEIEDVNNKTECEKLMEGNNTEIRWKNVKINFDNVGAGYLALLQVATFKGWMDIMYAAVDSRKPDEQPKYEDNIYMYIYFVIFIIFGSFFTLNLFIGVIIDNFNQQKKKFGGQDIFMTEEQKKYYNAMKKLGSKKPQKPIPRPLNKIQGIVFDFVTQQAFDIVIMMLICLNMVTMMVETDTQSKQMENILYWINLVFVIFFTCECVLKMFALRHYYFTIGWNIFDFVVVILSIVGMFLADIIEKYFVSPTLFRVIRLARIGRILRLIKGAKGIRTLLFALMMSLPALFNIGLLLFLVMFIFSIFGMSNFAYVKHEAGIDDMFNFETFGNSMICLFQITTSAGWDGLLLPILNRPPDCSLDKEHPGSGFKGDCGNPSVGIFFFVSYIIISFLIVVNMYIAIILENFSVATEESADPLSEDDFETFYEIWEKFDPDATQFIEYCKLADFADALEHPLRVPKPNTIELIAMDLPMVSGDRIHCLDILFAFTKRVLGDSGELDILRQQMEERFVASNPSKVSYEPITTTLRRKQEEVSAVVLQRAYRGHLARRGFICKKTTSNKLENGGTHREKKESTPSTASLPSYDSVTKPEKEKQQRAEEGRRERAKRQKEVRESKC
Assay: Peak INa voltage‐dependent block
Conditions: VDB IC50 / persistent INa IC50
Entries and their measured Ratio to persistent INa (peak INa VDB) follow.

Consider the worked cases shown below.
Recorded Ratio to persistent INa (peak INa VDB) (compound CCOC(F)(F)c1nnc2cnc(-c3cnc(OCC(F)(F)F)c(F)c3)cn12 [PRAX‐562] ): 2.2

Recorded Ratio to persistent INa (peak INa VDB) (compound O=C1NC(=O)C(c2ccccc2)(c2ccccc2)N1 [Phenytoin] ): .8

Recorded Ratio to persistent INa (peak INa VDB) (compound NC(=O)O[C@@H](Cn1ncnn1)c1ccccc1Cl [Cenobamate] ): .9

Recorded Ratio to persistent INa (peak INa VDB) (compound COC[C@@H](NC(C)=O)C(=O)NCc1ccccc1 [Lacosamide] ): .3

Consider the record given below.
Recorded Ratio to persistent INa (peak INa VDB) (compound NC(=O)N1c2ccccc2CC(=O)c2ccccc21 [Oxcarbazepine] ): .3
